All values here come from PubChem BioAssay (NCI).

System: OVCAR-4 ovarian
ASSAY: NCI tumour cell line growth inhibition, 48 h; in the data active = GI50 below about 0.43 µM; inactive = the rest
Lab note: assign the record to one of TRUE (active), FALSE (inactive)

Lab log entry: C/C([O-])=C1\Cc2ccccc2C1=O.C/C([O-])=C1\Cc2ccccc2C1=O.CC[O-].CC[O-].[Ti+4] — outcome as called in the assay?
FALSE

Dear all, I need the recorded test outcome for N#Cc1c(N)nc(N2CCOCC2)c(C#N)c1-c1ccc(Cl)cc1 , thank you.
FALSE

Hi, do you know how CCCCCCC#Cc1ccccc1C#CCO came out in this test?
FALSE

Each molecule tested received a call. Report the one for Cc1nc2cnc3cc(F)c(-c4ccc(Oc5ncccn5)cc4Cl)cc3c2n1[C@H]1CCN(C(=O)CO)C[C@@H]1F .
FALSE

How did this test come out for C=CCNCCCN1C(=O)c2ccc3c4c(ccc(c24)C1=O)C(=O)N(CCCNCC=C)C3=O ?
TRUE

---

Tested on: SK-MEL-5 melanoma
ASSAY: NCI tumour cell line growth inhibition, 48 h
RESULT TYPE: TGI (µM)
Answers are plain numbers, in µM.

Specify measured TGI for Cn1ccnc1C(=O)/C=C/c1ccc(CC(=O)Nc2ccc(S(F)(F)(F)(F)F)cc2)cc1 .
5.48

Let me know recorded TGI for Cc1nc2cnc3cc(F)c(-c4ccc(Oc5ncccn5)cc4Cl)cc3c2n1[C@H]1CCN(C(=O)CO)C[C@@H]1F , thanks.
14.7

// input: 7 compounds below; output: TGI for each
1. C[C@H]1[C@H](C)CC[C@]2(C(=O)N3CCN(C)CC3)CC[C@]3(C)C(=CC[C@@H]4[C@@]5(C)C/C(=C/c6cccnc6)C(=O)C(C)(C)[C@@H]5CC[C@]43C)[C@H]12
2. COP(=O)(OC)C(=NCc1ccccc1)NNc1ccc([N+](=O)[O-])cc1
3. O=C(/C=C/c1ccc(Cl)c(Cl)c1)c1ccc(F)cc1
4. Cc1ccc(NC(=O)c2cc3ccccc3c(N=Nc3ccccc3O)c2O)c(C)c1
5. COc1ccc(C(=O)COc2cccc(/C=C3\CSc4ccccc4C3=O)c2)cc1
6. FC(F)(F)C(C1=NC(C(F)(F)F)(C(F)(F)F)N=C(N2CCOCC2)O1)C(F)(F)F
7. C=C(C)C(=O)OC1CC2=CC(CC3(C)OC3C3OC(=O)C(=C)C13)OC2=O (stereo not given)

1: 2.54; 2: 34.8; 3: 41; 4: 3.35; 5: 3.27; 6: 28.4; 7: 31

# return recorded TGI for entry NC(=O)c1oc([N+](=O)[O-])c(-c2ccccc2)c1-c1ccccc1
14.2

---

Tested on: M14 melanoma
ASSAY: NCI tumour cell line growth inhibition, 48 h
// label = T if TGI is not less than 20 µM, otherwise F

Solved cases below.
Is TGI for CCN(CC)CCC1CCCCN1CC(=O)N1c2ccccc2NC(=O)c2ccccc21 (stereo not drawn) at or above 20 µM?
T

Reported TGI at or above 20 µM? C[C@H]1[C@H](C)CC[C@]2(C(=O)N3CCN(C)CC3)CC[C@]3(C)C(=CC[C@@H]4[C@@]5(C)C/C(=C/c6cccnc6)C(=O)C(C)(C)[C@@H]5CC[C@]43C)[C@H]12
F

Quick check, TGI >= 20 µM? CCCCCCCCCCCCCCCCCCNc1ccn(C2OC(CO)C(O)C2O)c(=O)n1 (stereo not drawn)
T

Form field: TGI at least 20 µM? Entry: C=CC(=O)N1CCN(c2nc(OC[C@@H]3CCCN3C)nc3c2CCN(c2cccc4cccc(C)c24)C3)C[C@@H]1CC#N
F

Determine whether measured TGI meets or exceeds 20 µM for CC(C)(C)[Si](C)(C)OCC1OC(n2ccc(=O)[nH]c2=O)C(O[Si](C)(C)C(C)(C)C)[C@@]12O[C@H]2C(N)=O (stereo partly drawn)
T

More entries:
Dear colleague, could you confirm whether FC(F)(F)C(C1=NC(C(F)(F)F)(C(F)(F)F)N=C(N2CCOCC2)O1)C(F)(F)F has TGI at or above 20 µM?
T

Decide: is the reported value of TGI for CCN1CN(c2ccccc2)C2(CCN(CCCSc3ccc(F)cc3)CC2)C1=O equal to or greater than 20 µM?
T

Item NNC(=O)CCC(=O)Nc1cc(Cl)c(Cl)cc1Cl with TGI of 20 µM or above?
T
